- System: Monochoria vaginalis, Presl.
- testName: Preemergence weed control under flooded paddy conditions, MOOVA (Monochoria); further: meaning of each grade not given here
- Format: in vivo
- particulars: Rate 0.0620 kg/ha; preemergence, flooded paddy; rated three to four weeks after treatment
parameter: herbicidal effect rating, MOOVA
Response field accepts a number only; no unit should be typed.

compound	herbicidal effect rating, MOOVA
C=C(Cl)COC(=O)c1nsc2ccc(-n3c(=O)cc(C(F)(F)F)n(C)c3=O)cc12	9.0
C=CCONC(=O)c1nsc2ccc(-n3c(=O)cc(C(F)(F)F)n(C)c3=O)cc12	7.0
Cn1c(C(F)(F)F)cc(=O)n(-c2ccc3snc(COCc4ccc(Cl)c(Cl)c4)c3c2)c1=O	6.5
COc1cc2c(cc1-c1nsc3ccc(-n4c(=O)cc(C(F)(F)F)n(C)c4=O)cc13)CCC2	9.0
Cn1c(C(F)(F)F)cc(=O)n(-c2ccc3snc(C(=O)NCC(=O)O)c3c2)c1=O	7.0
Cn1c(C(F)(F)F)cc(=O)n(-c2ccc3snc(C#N)c3c2)c1=O	9.0
Cc1ccc(C=C(C#N)c2nsc3ccc(-n4c(=O)cc(C(F)(F)F)n(C)c4=O)cc23)cc1	4.0

Now consider a different compound.
Recorded herbicidal effect rating, MOOVA for CCCCS(=O)(=O)NC(=O)C(C)Oc1ccc(C)cc1-c1nsc2ccc(-n3c(=O)cc(C(F)(F)F)n(C)c3=O)cc12 (centres unmarked) with Monochoria vaginalis, Presl., please?
4.0
